The values you see were collected from paper PMC6637425.

- test system: BACE2 enzyme (Homo sapiens, UniProt Q9Y5Z0)
- Sequence (Q9Y5Z0 63-518): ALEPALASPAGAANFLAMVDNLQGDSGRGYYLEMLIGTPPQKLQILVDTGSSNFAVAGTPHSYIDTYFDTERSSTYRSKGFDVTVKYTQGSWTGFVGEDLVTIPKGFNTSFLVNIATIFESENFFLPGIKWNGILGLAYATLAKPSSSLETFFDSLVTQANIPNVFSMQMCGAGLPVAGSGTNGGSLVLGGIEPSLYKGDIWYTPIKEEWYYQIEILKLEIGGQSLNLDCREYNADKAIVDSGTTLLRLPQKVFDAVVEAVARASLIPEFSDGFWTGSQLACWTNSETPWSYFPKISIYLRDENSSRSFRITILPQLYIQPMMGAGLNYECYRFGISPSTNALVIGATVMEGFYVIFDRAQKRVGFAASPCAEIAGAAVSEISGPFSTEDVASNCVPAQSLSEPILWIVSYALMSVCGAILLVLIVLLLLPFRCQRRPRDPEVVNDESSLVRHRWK
- assay procedure: BACE2 enzyme inhibition, Ki from kinetic data under tight-binding conditions
- Format: biochemical
- condition: ratio of Ki values
property name: selectivity for BACE2 over BACE1 (fold)
Give bare numbers, in fold.

Below, 3 compounds whose answers are already recorded.
[
  {
    "smiles entry": "CCC[C@H](O)[C@H](NC[C@@H](O)[C@H](Cc1ccccc1)NC(=O)c1cc(C)cc(C(=O)N(C)[C@H](C)c2ccccc2)c1)c1cccc(OC)c1",
    "test system": "BACE2 enzyme (Homo sapiens, UniProt Q9Y5Z0)",
    "measure unit": "fold",
    "reported measurement": 62
  },
  {
    "smiles entry": "C[C@H](c1ccccc1)N(C)C(=O)c1cccc(C(=O)N[C@@H](Cc2ccccc2)[C@H](O)CNCc2cccc(C(F)(F)F)c2)c1",
    "test system": "BACE2 enzyme (Homo sapiens, UniProt Q9Y5Z0)",
    "measure unit": "fold",
    "reported measurement": 37
  },
  {
    "smiles entry": "Cc1cc(C(=O)N[C@@H](Cc2ccccc2)[C@H](O)CN[C@H](C(=O)NCC(C)C)[C@H](C)O)cc(C(=O)N(C)Cc2nc(C)cs2)c1",
    "test system": "BACE2 enzyme (Homo sapiens, UniProt Q9Y5Z0)",
    "measure unit": "fold",
    "reported measurement": 2
  }
]

Now for the compound whose selectivity for BACE2 over BACE1 we want.
For the compound shown here, `CCC[C@H](O)[C@H](NC[C@@H](O)[C@H](Cc1ccccc1)NC(=O)c1cccc(C(=O)N(C)[C@H](C)c2ccccc2)c1)c1cccc(OC)c1` , give the reported selectivity for BACE2 over BACE1.
159
